System: Scytalidium hyalinum
Test: Antifungal Activity Test 2: MIC by broth microdilution method (Alamar Blue)
Format: cell-based
Conditions: Neoscytalidium hyalinum; clinical isolate CBS619.84; growth inhibited by 80% or more; read-out: MIC
measurement-type: MIC (µg/mL)

### Prompt # returns recorded MIC (system: Scytalidium hyalinum) for CC(=O)N1CCN(c2ccc(OCC3COC(Cn4ccnc4)(c4ccc(Cl)cc4Cl)O3)cc2)CC1 (centres unmarked)
### Response 2

### Prompt What MIC appears in the records for this compound with Scytalidium hyalinum? CCC(C)(C)c1ccc(CC(C)CN2C[C@@H](C)O[C@@H](C)C2)cc1 (some centres unmarked)
### Response 2

### Prompt Given the entry C[C@@H](c1ncncc1F)[C@](O)(Cn1cncn1)c1ccc(F)cc1F , what MIC was observed with Scytalidium hyalinum?
### Response 0.13

### Prompt Could you share what MIC was measured for CN(C/C=C/C#CC(C)(C)C)Cc1cccc2ccccc12 , tested on Scytalidium hyalinum?
### Response 0.25

### Prompt Recorded MIC for c1ccc(-c2ccc(C(c3ccccc3)n3ccnc3)cc2)cc1 (centres unmarked) with Scytalidium hyalinum, please?
### Response 0.13

[a] N#C/C(=C1/SCC(c2ccccc2Cl)S1)n1ccnc1 (centres unmarked)
[b] Clc1ccc(COC(Cn2ccnc2)c2ccc(Cl)cc2Cl)c(Cl)c1 (centres unmarked)
[c] N#C/C(=C1/SC[C@@H](c2ccc(Cl)cc2Cl)S1)n1ccnc1
### Prompt Please produce an ascending ranking of these compounds based on MIC. List each label, following the requested order.
### Response c, a, b
(c: 0.00098 µg/mL, a: 0.002 µg/mL, b: 0.5 µg/mL)

###

System: Scytalidium dimidiatum
Test: Antifungal Activity Test 1: MIC by broth microdilution method (Alamar Blue)
Assay type: cell-based
Conditions: Neoscytalidium dimidiatum, clinical isolate 531869; growth inhibited by 80% or more; read-out: MIC
measurement-type: MIC (µg/mL)

Some solved entries appear below for comparison.
### Prompt Form field: reported MIC of N#C/C(=C1/SC[C@@H](c2ccc(Cl)cc2Cl)S1)n1ccnc1 [LLCZ]
### Response 0.00098

### Prompt What value of MIC has been reported for the following compound? CN(C/C=C/C#CC(C)(C)C)Cc1cccc2ccccc12 [TBF, terbinafine]
### Response 0.5

### Prompt Form field: reported MIC of N#C/C(=C1/SCC(c2ccccc2Cl)S1)n1ccnc1 (centres unmarked) [LCZ]
### Response 0.002

### Prompt Given the entry CC(=O)N1CCN(c2ccc(OCC3COC(Cn4ccnc4)(c4ccc(Cl)cc4Cl)O3)cc2)CC1 (centres unmarked) [KCZ, ketoconazole] , report its measured MIC.
### Response 2

### Prompt For the compound Clc1ccc(COC(Cn2ccnc2)c2ccc(Cl)cc2Cl)c(Cl)c1 (centres unmarked) [MCZ, miconazole] , what MIC is on record?
### Response 0.5

### Prompt // MIC lookup, key: CCC(C)(C)c1ccc(CC(C)CN2C[C@@H](C)O[C@@H](C)C2)cc1 (some centres unmarked) [AMO, amorolfine]
### Response 0.5

### Prompt Looking for the measured MIC of C[C@@H](c1ncncc1F)[C@](O)(Cn1cncn1)c1ccc(F)cc1F [VCZ, voriconazole] , can you help?
### Response 0.13

[A] c1ccc(-c2ccc(C(c3ccccc3)n3ccnc3)cc2)cc1 (centres unmarked) [BFZ, bifonazole]
[B] Clc1ccccc1C(c1ccccc1)(c1ccccc1)n1ccnc1 [CTZ, clotrimazole]
### Prompt Identify the entry with the larger MIC. Options: A and B # respond with the chosen item's label
### Response B

###

System: Scytalidium hyalinum
Assay: Antifungal Activity Test 2: MIC by broth microdilution method (Alamar Blue)
Format: cell-based
Details: Neoscytalidium hyalinum; geometric mean of the 4 strains measured; read-out: GM (geometric mean of MIC)
measurement-type: MIC (µg/mL)

### Prompt Need MIC, item c1ccc(-c2ccc(C(c3ccccc3)n3ccnc3)cc2)cc1 (centres unmarked)
### Response 0.063

### Prompt Quick check: MIC of N#C/C(=C1/SC[C@@H](c2ccc(Cl)cc2Cl)S1)n1ccnc1 ?
### Response 0.00058

### Prompt Entry under review: CN(C/C=C/C#CC(C)(C)C)Cc1cccc2ccccc12 . Reported MIC?
### Response 0.42

### Prompt Which MIC is listed for C[C@@H](c1ncncc1F)[C@](O)(Cn1cncn1)c1ccc(F)cc1F ?
### Response 0.064

### Prompt Find the recorded MIC belonging to N#C/C(=C1/SCC(c2ccccc2Cl)S1)n1ccnc1 (centres unmarked) and report it.
### Response 0.00098

[P] Clc1ccccc1C(c1ccccc1)(c1ccccc1)n1ccnc1
[Q] CCC(C)(C)c1ccc(CC(C)CN2C[C@@H](C)O[C@@H](C)C2)cc1 (some centres unmarked)
### Prompt For this pair, P and Q , which shows a numerically higher MIC? Write down the label attached to your selection.
### Response Q

[P] CC(=O)N1CCN(c2ccc(OCC3COC(Cn4ccnc4)(c4ccc(Cl)cc4Cl)O3)cc2)CC1 (centres unmarked)
[Q] Clc1ccc(COC(Cn2ccnc2)c2ccc(Cl)cc2Cl)c(Cl)c1 (centres unmarked)
### Prompt Identify the entry with the larger MIC. Options: P and Q Reply with the label of the item you choose.
### Response P

###

Test system: Scytalidium dimidiatum
Test: Antifungal Activity Test 1: MIC by broth microdilution method (Alamar Blue)
Assay type: cell-based
Conditions: Neoscytalidium dimidiatum, clinical isolate 531581; growth inhibited by 80% or more; read-out: MIC
measurement-type: MIC (µg/mL)

[A] N#C/C(=C1/SC[C@@H](c2ccc(Cl)cc2Cl)S1)n1ccnc1
[B] CN(C/C=C/C#CC(C)(C)C)Cc1cccc2ccccc12
### Prompt Between item A and item B , which reported MIC is smaller? Mark your answer with the label of the selected entry.
### Response A
(A: 0.002 µg/mL, B: 0.5 µg/mL)

###

System: Scytalidium dimidiatum
Experiment: Antifungal Activity Test 1: MIC by broth microdilution method (Alamar Blue)
Format: cell-based
Conditions: Neoscytalidium dimidiatum, clinical isolate 531581; growth inhibited by 80% or more; read-out: MIC
measurement-type: MIC (µg/mL)

Known MIC results, listed for orientation:
### Prompt Name the recorded MIC for Clc1ccccc1C(c1ccccc1)(c1ccccc1)n1ccnc1 .
### Response 0.25

### Prompt Return reported MIC; argument: c1ccc(-c2ccc(C(c3ccccc3)n3ccnc3)cc2)cc1 (centres unmarked)
### Response 0.25

[P] C[C@@H](c1ncncc1F)[C@](O)(Cn1cncn1)c1ccc(F)cc1F
[Q] N#C/C(=C1/SCC(c2ccccc2Cl)S1)n1ccnc1 (centres unmarked)
[R] CCC(C)(C)c1ccc(CC(C)CN2C[C@@H](C)O[C@@H](C)C2)cc1 (some centres unmarked)
### Prompt hey, can you rank those compounds up there by MIC? biggest number first please // respond by listing labels in the order requested
### Response R, P, Q
(R: 0.5 µg/mL, P: 0.25 µg/mL, Q: 0.0039 µg/mL)

###

System: Scytalidium dimidiatum
Experiment: Antifungal Activity Test 1: MIC by broth microdilution method (Alamar Blue)
Format: cell-based
Details: Neoscytalidium dimidiatum, clinical isolate 530914; growth inhibited by 80% or more; read-out: MIC
measurement-type: MIC (µg/mL)

Completed entries (count: 3):
### Prompt # get_value(readout='MIC', item= CCC(C)(C)c1ccc(CC(C)CN2C[C@@H](C)O[C@@H](C)C2)cc1 (some centres unmarked) )
### Response 2

### Prompt Quick one: MIC of Clc1ccc(COC(Cn2ccnc2)c2ccc(Cl)cc2Cl)c(Cl)c1 (centres unmarked) ?
### Response 1

### Prompt Fill in the blank: the reported MIC of N#C/C(=C1/SCC(c2ccccc2Cl)S1)n1ccnc1 (centres unmarked) is ____.
### Response 0.0039

[1] Clc1ccccc1C(c1ccccc1)(c1ccccc1)n1ccnc1
[2] N#C/C(=C1/SC[C@@H](c2ccc(Cl)cc2Cl)S1)n1ccnc1
### Prompt Lowest MIC? choose 1 or 2 Write down the label attached to your selection.
### Response 2

###

System: Scytalidium dimidiatum
Assay: Antifungal Activity Test 1: MIC by broth microdilution method (Alamar Blue)
Format: cell-based
Conditions: Neoscytalidium dimidiatum, clinical isolate 530914; growth inhibited by 80% or more; read-out: MIC
measurement-type: MIC (µg/mL)

### Prompt # lookup: MIC of CN(C/C=C/C#CC(C)(C)C)Cc1cccc2ccccc12
### Response 0.25

[a] c1ccc(-c2ccc(C(c3ccccc3)n3ccnc3)cc2)cc1 (stereo not drawn)
[b] C[C@@H](c1ncncc1F)[C@](O)(Cn1cncn1)c1ccc(F)cc1F
### Prompt When a and b are compared, which has the higher number for MIC? Answer = label.
### Response b
(b: 0.25 µg/mL, a: 0.13 µg/mL)

###

System: Scytalidium hyalinum
Test: Antifungal Activity Test 2: MIC by broth microdilution method (Alamar Blue)
Type: cell-based
Conditions: Neoscytalidium hyalinum; clinical isolate CBS619.84; growth inhibited by 80% or more; read-out: MIC
measurement-type: MIC

### Prompt MIC lookup needed for OC(Cn1cncn1)(Cn1cncn1)c1ccc(F)cc1F , thanks.
### Response > 4 µg/mL

### Prompt // returns reported MIC for input CCC(C)n1ncn(-c2ccc(N3CCN(c4ccc(OCC5COC(Cn6cncn6)(c6ccc(Cl)cc6Cl)O5)cc4)CC3)cc2)c1=O (stereo not drawn)
### Response > 4 µg/mL

Attention now turns to another entry.
### Prompt Request the reported MIC associated with Clc1ccccc1C(c1ccccc1)(c1ccccc1)n1ccnc1
### Response 0.25 µg/mL

Data origin, for the record: patent US9040573B2
